The reported measurements were obtained from the Human Domainome abundance scans (Beltran et al. 2025).

B1: DnaJ homolog subfamily C member 5, residues 16 to 77; numbered along this chain, Q9H3Z4 (parent)
chain: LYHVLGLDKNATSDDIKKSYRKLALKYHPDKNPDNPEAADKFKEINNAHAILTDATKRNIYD

Variants of: B1
Experiment: abundance fitness (aPCA) (normalised: wild type 0, dead -1); higher = more abundant; growth selection in yeast, the domain comes from the species named
Conditions: Homo sapiens
Label rule, in plain words: abundance fitness of -0.1 and up is rule met, under -0.1 is rule not met.

These recorded examples may help you get a feel for the data.
* LYHVLGLDKNATSDDIKKSYRKLALKYHPDKNPDNPEAADKFKEINNCHAILTDATKRNIYD [A48C] | rule not met
* LYHVLGLDKNATSDDIKKSYRKLALKYHPDKNPDNPEAADWFKEINNAHAILTDATKRNIYD [K41W] | rule not met
* LYHVLGLDKNATSDDIKKSYRKLALKYHPDKNPDNPEAADFFKEINNAHAILTDATKRNIYD [K41F] | rule not met

Below: the item to evaluate.
Qu. Has LYHVLGLDQNATSDDIKKSYRKLALKYHPDKNPDNPEAADKFKEINNAHAILTDATKRNIYD [K9Q] a recorded abundance fitness greater than or equal to -0.1?
Ans. rule not met
